Experimental Target: T1, anti-CD28 Fab (SEQ ID NOs: 202, 203)
T1 construct: biotinylated and captured on neutravidin coated plates in the phage ELISA
T1 sequence (VH, as listed by the source, chain 1 of 2): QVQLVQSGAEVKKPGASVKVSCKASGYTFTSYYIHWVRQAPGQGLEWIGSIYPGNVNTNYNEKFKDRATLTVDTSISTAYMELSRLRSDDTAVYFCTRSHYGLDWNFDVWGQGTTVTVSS
T1 sequence (VL, as listed by the source, chain 2 of 2): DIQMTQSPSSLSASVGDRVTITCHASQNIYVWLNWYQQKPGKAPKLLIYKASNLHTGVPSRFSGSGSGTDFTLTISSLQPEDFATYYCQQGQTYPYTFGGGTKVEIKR
Protocol Details: phage binding ELISA; biotinylated Fab on neutravidin plate;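 further: clonal phage supernatants added to Fab wells pretreated with CD28 antigen or with blocking buffer only, bound phage read out via HRP-linked anti-M13 antibody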
Measure Name: Anti-CD28 Fab (SEQ ID NOs: 202, 203) signal

INSERT INTO results (binder, obs_value) VALUES
  ('YCDGHTREYIDKCL [Phage-368]', 1.8),
  ('YCAGHSQEHIQKCL [Phage-415]', 1.73),
  ('YCEGHLPIYMSKCL [Phage-388]', 1.76),
  ('YCEGHSAEYMLKCL [Phage-401]', 1.75);

Hey, just so you know, these numbers are from patent US20260274955A1.
